# system: Pdx1 homeodomain (Pdx1-HD) (Homo sapiens, UniProt P52945 146-206)
# Sequence (P52945 146-206): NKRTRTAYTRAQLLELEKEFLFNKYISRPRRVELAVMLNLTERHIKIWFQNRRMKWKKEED
# method.description: ITC
readout.name: pKd
API: returns pKd as number; meaning -log10 of concentration in mol/L.

Q. Give the measured pKd for Insulin A3 (dsDNA) DNA 1: AGACTCTAATGACCCG DNA 2: CGGGTCATTAGAGTCT
A. 8.40

Q. Hello, please tell me recorded pKd for this one: IAPP A1 (dsDNA) DNA 1: GGAAATTAATGACAGA DNA 2: TCTGTCATTAATTTCC
A. 7.66

Q. Give pKd for IAPP A2 (dsDNA) DNA 1: ATGAGTTAATGTAATA DNA 2: TATTACATTAACTCAT
A. 7.57

Q. Give a short answer stating reported pKd for Insulin A1 (dsDNA) DNA 1: AGGCCCTAATGGGCCA DNA 2: TGGCCCATTAGGGCCT .
A. 8.15

Q. Find the measured pKd of Insulin E1 (dsDNA) DNA 1: AGCCATCTGCCGACCC DNA 2: GGGTCGGCAGATGGCT and report it.
A. 5.89
